# TARGET_OF_ASSAY: Disintegrin and metalloproteinase domain-containing protein 17 (Homo sapiens)
# Sequence (P78536 whole entry, the tested form may be a part): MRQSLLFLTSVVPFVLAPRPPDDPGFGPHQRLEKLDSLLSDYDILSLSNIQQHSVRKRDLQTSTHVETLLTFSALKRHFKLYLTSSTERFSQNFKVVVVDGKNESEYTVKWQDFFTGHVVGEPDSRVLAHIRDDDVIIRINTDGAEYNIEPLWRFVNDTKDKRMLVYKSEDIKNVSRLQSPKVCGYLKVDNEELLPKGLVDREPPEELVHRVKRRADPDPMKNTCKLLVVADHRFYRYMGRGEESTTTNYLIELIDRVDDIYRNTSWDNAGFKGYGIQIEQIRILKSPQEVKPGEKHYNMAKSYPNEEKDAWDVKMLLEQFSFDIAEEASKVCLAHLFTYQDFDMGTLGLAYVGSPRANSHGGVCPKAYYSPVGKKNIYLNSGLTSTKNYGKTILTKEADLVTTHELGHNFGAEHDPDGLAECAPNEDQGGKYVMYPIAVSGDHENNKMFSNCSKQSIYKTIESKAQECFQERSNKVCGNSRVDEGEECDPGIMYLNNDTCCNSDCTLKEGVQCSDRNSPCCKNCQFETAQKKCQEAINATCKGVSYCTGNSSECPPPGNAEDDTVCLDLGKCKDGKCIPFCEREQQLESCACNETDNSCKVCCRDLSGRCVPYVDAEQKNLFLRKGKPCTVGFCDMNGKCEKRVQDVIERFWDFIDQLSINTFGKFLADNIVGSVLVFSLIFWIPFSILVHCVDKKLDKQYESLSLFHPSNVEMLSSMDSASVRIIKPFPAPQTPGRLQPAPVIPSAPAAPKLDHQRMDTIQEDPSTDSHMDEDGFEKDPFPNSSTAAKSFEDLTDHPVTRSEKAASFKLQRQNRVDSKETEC
READOUT_LABEL: IC50 (µM)
Could you give me the number in µM? Just the number is fine.

Problem: Entry `CC(C)[C@H](NS(=O)(=O)c1ccc2c(c1)oc1ccc(N3CCOC3=O)cc12)C(=O)O` , system Disintegrin and metalloproteinase domain-containing protein 17 (Homo sapiens): what IC50 was measured?
Result: 40

---

# TARGET_OF_ASSAY: A disintegrin and metalloproteinase with thrombospondin motifs 5 (Homo sapiens)
# Sequence (Q9UNA0 whole entry): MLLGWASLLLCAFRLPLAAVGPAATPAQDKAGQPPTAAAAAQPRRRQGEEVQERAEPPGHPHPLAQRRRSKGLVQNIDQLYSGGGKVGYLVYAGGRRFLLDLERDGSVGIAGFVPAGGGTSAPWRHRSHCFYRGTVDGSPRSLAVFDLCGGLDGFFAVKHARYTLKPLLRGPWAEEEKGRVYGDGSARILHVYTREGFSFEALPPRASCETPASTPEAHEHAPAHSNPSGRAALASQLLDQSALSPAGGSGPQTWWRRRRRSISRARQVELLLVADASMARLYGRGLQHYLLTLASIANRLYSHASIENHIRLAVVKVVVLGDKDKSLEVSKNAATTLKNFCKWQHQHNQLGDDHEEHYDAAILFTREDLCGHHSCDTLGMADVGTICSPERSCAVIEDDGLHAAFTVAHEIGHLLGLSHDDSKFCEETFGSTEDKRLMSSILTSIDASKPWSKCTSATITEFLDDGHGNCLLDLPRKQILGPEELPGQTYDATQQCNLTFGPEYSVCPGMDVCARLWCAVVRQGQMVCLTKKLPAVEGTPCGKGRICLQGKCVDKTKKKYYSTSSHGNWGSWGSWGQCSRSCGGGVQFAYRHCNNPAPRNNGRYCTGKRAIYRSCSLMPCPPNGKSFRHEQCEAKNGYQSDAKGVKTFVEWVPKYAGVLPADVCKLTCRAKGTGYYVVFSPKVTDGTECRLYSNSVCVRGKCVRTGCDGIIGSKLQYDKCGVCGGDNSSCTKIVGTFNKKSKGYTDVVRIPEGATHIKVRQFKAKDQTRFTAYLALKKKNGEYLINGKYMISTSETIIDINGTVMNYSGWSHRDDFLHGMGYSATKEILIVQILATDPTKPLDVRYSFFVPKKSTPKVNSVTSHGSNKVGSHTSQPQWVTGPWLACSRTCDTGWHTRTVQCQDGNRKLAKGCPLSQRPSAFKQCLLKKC
READOUT_LABEL: IC50 (µM)
Could you give me the number in µM? Just the number is fine.

Problem: Entry `CC(C)[C@H](NS(=O)(=O)c1ccc2c(c1)oc1ccc(N3CCOC3=O)cc12)C(=O)O` , system A disintegrin and metalloproteinase with thrombospondin motifs 5 (Homo sapiens): what IC50 was measured?
Result: 22.6
